TARGET ENTITY: DPP-IV (Rattus norvegicus, UniProt P14740)
Construct: The coagulated blood was centrifuged at 3,000 rpm for 20 minutes to separate serum for use in the experiment
Sequence (P14740 37-767 limits assumed): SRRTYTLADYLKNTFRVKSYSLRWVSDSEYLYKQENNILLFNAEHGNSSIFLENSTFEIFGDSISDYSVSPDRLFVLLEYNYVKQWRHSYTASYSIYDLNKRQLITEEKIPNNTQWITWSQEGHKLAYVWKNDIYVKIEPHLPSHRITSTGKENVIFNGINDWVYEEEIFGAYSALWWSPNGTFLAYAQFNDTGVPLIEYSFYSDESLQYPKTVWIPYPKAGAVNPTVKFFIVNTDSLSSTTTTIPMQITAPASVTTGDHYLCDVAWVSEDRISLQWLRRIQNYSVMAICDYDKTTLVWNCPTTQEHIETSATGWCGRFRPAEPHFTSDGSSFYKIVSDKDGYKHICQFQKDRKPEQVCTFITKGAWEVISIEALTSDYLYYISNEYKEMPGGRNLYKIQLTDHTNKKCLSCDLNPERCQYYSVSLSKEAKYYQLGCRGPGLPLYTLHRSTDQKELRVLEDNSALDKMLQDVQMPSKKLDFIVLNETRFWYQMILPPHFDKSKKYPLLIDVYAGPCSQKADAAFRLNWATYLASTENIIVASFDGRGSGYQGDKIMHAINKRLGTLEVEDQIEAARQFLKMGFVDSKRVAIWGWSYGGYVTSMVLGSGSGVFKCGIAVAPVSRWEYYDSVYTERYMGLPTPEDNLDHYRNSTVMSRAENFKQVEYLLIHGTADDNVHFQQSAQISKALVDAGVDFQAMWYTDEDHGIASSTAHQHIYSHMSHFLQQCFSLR
ASSAY PROTOCOL: Test for inhibitory action against DPP-IV (rat serum, Gly-Pro-AMC fluorescence)
APPLIED CONDITIONS: Gly-Pro-AMC 50 μmol/L, pH 7.8, room temperature 20 minutes
Structures can show the parent of a compound that is named as a salt.
METRIC NAME: IC50 (µM)
State the answer as a number, implicitly in µM.

> print(dat)
                            compound  metric.name  value.observed
1  N#C[C@@H]1CCCN1C(=O)CNCCNc1cnccn1         IC50           0.031

Inquiry: # IC50 lookup, item N#Cc1ccc(NCC2(NC(=O)CN3CCC[C@H]3C#N)CCCC2)nc1 [Compound 602, fumarate]
Reply text: 0.041

Inquiry: # IC50 lookup, item "N#C[C@@H]1CCCN1C(=O)CNC1CCN(S(=O)(=O)c2ccccc2)CC1"
Reply text: 0.02

Inquiry: # IC50 lookup, item CC1(NCC(=O)N2CCC[C@H]2C#N)CCN(c2ccc(C#N)cn2)CC1 [Compound 207, dihydrochloride]
Reply text: 0.015

* * *

TARGET ENTITY: DPP-IV (Rattus norvegicus)
Construct: The coagulated blood was centrifuged at 3,000 rpm for 20 minutes to separate serum for use in the experiment
ASSAY PROTOCOL: Test for inhibitory action against DPP-IV (rat serum, Gly-Pro-AMC fluorescence)
APPLIED CONDITIONS: Gly-Pro-AMC 50 μmol/L, pH 7.8, room temperature 20 minutes
Experimental: Under mild anesthesia with diethylether, a rat was incised at lower left side of the limb, and the crural aorta was cut and blood was collected. The collected blood was immediately ice-cooled. […] AMC, which was released by DPP-IV activity, was quantified by measurement of fluorescence at 460 nm which was excited at 390 nm. DPP-IV activity was calculated according to the following equation: […] F100: Fluorescence intensity of AMC with addition of serum […]
Where a name gives a salt, the structure may show the parent alone.
Doc: threshold 50 nM (exclusive). Items with IC50 beneath it return y; others return n.

Inquiry: Strictly below 50 nM in IC50? CC(C)(CNc1ccc(S(=O)(=O)NCCO)cn1)NCC(=O)N1CCC[C@H]1C#N [Compound 524]
Reply text: y

Inquiry: Strictly below 50 nM in IC50? CC1(NCC(=O)N2CCC[C@H]2C#N)CCN(c2ncccn2)CC1 [Compound 233]
Reply text: y

Inquiry: Strictly below 50 nM in IC50? N#C[C@@H]1CCCN1C(=O)CNCCNc1cnc2ccccc2n1 [Compound 103, dihydrochloride]
Reply text: n

Inquiry: Strictly below 50 nM in IC50? CC(C)(CNc1ccc(C#N)cc1)NCC(=O)N1CCC[C@H]1C#N [Compound 703]
Reply text: n

Inquiry: Strictly below 50 nM in IC50? CC1(NCC(=O)N2CCC[C@H]2C#N)CCN(c2ccccn2)CC1 [Compound 238, dihydrochloride]
Reply text: y

* * *

TARGET ENTITY: DPP-IV (Rattus norvegicus, UniProt P14740)
Construct: The coagulated blood was centrifuged at 3,000 rpm for 20 minutes to separate serum for use in the experiment
ASSAY PROTOCOL: Test for inhibitory action against DPP-IV (rat serum, Gly-Pro-AMC fluorescence)
APPLIED CONDITIONS: Gly-Pro-AMC 50 μmol/L, pH 7.8, room temperature 20 minutes
Counter-ions that a name gives are not always drawn.
Quick reference: IC50 of the listed items.
State the answer as a number, implicitly in nM.

> print(dat)
                                   compound  value.observed
1  N#Cc1cccnc1NCc1ccc(CNCC(=O)N2CCC[C@H]2C#N)cc1 [Compound 201]             392
2  CC(C)(CNc1nccs1)NCC(=O)N1CCC[C@H]1C#N [Compound 226]              18
3  CN(C)S(=O)(=O)c1ccc(NCC(C)(C)NCC(=O)N2CCC[C@H]2C#N)nc1 [Compound 501]              23
4  N#C[C@@H]1CCCN1C(=O)CNCCNC(=O)c1ccccc1 [Compound 403, hydrochloride]             124
5  CC(C)(CNc1ccc(C(N)=O)cn1)NCC(=O)N1CCC[C@H]1C#N [Compound 221]              27

// switching to the query compound
Inquiry: # IC50 lookup, item CC1(NCC(=O)N2CCC[C@H]2C#N)CCN(c2ccc(S(=O)(=O)N3CC=CC3)cn2)CC1 [Compound 529]
Reply text: 26
